Values compiled from patent US12351597B2.

molecular target: FimH (Escherichia coli, UniProt Q1R2J4); construct: endogenous in cells; host or cells: E. coli UTI89 whole bacteria (piliated), with guinea pig red blood cells; experiment: Hemagglutination inhibition assay (HAI); type: cell-based; conditions: HAI titer / EC>90: concentration reducing bacterial agglutination of guinea pig red blood cells by >90%; UTI89 bacteria
observable: HAI nM

• Cc1cc(-c2ccc(C(F)(F)F)cn2)ccc1O[C@H]1O[C@H](CO)[C@@H](O)[C@H](O)[C@@H]1O [Example 27] = “+++” (50-200)
• OC[C@H]1O[C@H](Oc2ccc(-c3nccc(C(F)(F)F)n3)cc2C(F)(F)F)[C@@H](O)[C@@H](O)[C@@H]1O [Example 13] = “+++” (50-200)
• Cc1cc(-c2cnccn2)ccc1O[C@H]1O[C@H](CO)[C@@H](O)[C@H](O)[C@@H]1O [Example 23] = “+++” (50-200)
• Cc1cc(-c2nccnc2C(F)(F)F)ccc1O[C@H]1O[C@H](CO)[C@@H](O)[C@H](O)[C@@H]1O [Example 29] = “+++” (50-200)
• Cc1cc(-c2cnc(F)c(C(F)(F)F)c2)ccc1O[C@H]1O[C@H](CO)[C@@H](O)[C@H](O)[C@@H]1O [Example 31] = “+++” (50-200)
• Cc1cc(-c2ccc(C(F)(F)F)nc2)ccc1O[C@H]1O[C@H](CO)[C@@H](O)[C@H](O)[C@@H]1O [Example 26] = “+++” (50-200)

Below: the item to evaluate.
Provide the documented HAI nM with FimH (Escherichia coli, UniProt Q1R2J4) as the system for Cc1cc(-c2cc(F)cc(C#N)c2)ccc1O[C@H]1O[C@H](CO)[C@@H](O)[C@H](O)[C@@H]1O [Example 4]
“+++” (50-200)
